protocol-text: Cell Viability - LYMP2-023 (AID 975);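 also: cellular ATP measured by luciferase luminescence as viability proxy; cells exposed to compound for 24 hours at 37 °C; nearly all actives have a fitted effect of over 55% in size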
conditions: LYMP2-023 lymphoblastoid cell viability; series mostly up to 92.2 µM
Inconclusive results are not listed. The source made the active and inactive calls. Calls follow the shape of the dose curve; as a rule, active = well fitted cell-killing curve with a large enough effect; inconclusive = small, poorly fitted or top-dose-only effect; inactive = flat fitted curve, though single readings scatter.
reported-property: outcome

Worked cases, outcome given:
O=c1[nH]cnc2[nH]ncc12 inactive
CCCC(CCC)C(=O)O inactive
NS(=O)(=O)c1cc2c(cc1Cl)NC=NS2(=O)=O inactive
NC(=O)c1cnccn1 inactive
NC(N)=NC(=O)c1nc(Cl)c(N)nc1N inactive

### Prompt Consider the compound `CC(=O)Oc1ccccc1C(=O)O` and give its measured outcome.
### Response inactive

###

measured-on: Protein phosphatase 1D (Homo sapiens) (UniProt O15297)
Sequence (O15297 whole entry, looked up): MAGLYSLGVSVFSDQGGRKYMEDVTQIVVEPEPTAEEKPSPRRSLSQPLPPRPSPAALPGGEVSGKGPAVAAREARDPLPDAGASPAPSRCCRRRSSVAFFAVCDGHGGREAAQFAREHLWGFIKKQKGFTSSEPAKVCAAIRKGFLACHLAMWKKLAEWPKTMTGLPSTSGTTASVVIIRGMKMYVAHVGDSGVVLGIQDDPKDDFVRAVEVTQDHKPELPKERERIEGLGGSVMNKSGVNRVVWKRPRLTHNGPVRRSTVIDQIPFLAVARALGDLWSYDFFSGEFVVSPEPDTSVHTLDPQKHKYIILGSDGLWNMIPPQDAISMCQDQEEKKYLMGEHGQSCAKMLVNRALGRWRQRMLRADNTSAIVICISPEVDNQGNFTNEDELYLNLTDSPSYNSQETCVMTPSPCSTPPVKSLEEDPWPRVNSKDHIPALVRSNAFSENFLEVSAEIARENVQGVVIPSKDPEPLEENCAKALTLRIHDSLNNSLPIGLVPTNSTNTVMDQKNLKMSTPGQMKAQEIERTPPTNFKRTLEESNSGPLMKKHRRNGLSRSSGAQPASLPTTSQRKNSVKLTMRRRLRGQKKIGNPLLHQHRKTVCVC
protocol-text: RapidFire Mass Spectrometry qHTS Assay for Modulators of WT P53-Induced Phosphatase 1 (WIP1) (AID 1347424);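 also: amount of dephosphorylated VEPPL-S-QETFS peptide product formed by WIP1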
conditions: WIP1 dephosphorylation of phosphopeptide, RapidFire MS; series mostly up to 63 µM
Results filed as inconclusive are left out. Calls of active or inactive are those of the source. Calls follow the shape of the dose curve; as a rule, active = well fitted inhibition curve with a large enough effect; inconclusive = small, poorly fitted or top-dose-only effect; inactive = no such curve, though single readings can be large or run the other way.
reported-property: outcome

molecule	outcome
Nc1nc2ccc(OC(F)(F)F)cc2s1	inactive
Cn1cnc2c(F)c(Nc3ccc(Br)cc3Cl)c(C(=O)NOCCO)cc21	inactive
CCCC(CCC)C(=O)O	inactive
C[C@]12CCC(=O)C=C1CC[C@@H]1[C@@H]2[C@@H](O)C[C@@]2(C)[C@H]1CC[C@]2(O)C(=O)CO	inactive
NS(=O)(=O)c1cc2c(cc1Cl)NC=NS2(=O)=O	inactive
Nc1ccc(S(=O)(=O)Nc2ccnn2-c2ccccc2)cc1	inactive
Cn1cnc([N+](=O)[O-])c1Sc1ncnc2nc[nH]c12	inactive
NCCc1ccc(O)c(O)c1	inactive

Now take the following molecule into account.
### Prompt Consider the molecule `O=c1n(CCCN2CCN(c3cccc(Cl)c3)CC2)nc2ccccn12` and give its measured outcome.
### Response inactive

###

protocol-text: qHTS drug screen for cell cycle checkpoint inhibitors in PARPi-resistant BRCA-mutant ovarian cancer cell lines. (AID 1963452)
conditions: PEO1/OlaR viability, CellTiter-Glo luminescence, 96 h; measured here: PEO1 parental Z-AUC; stronger effect = lower value
So basically, the class depends on measured Z-AUC, and the ranges are lower range (below -0.6), middle range (-0.6 to below 0.08), upper range (0.08 or more)

Worked examples, 4 molecules total:
molecule	class
Nc1nc2[nH]cc(CCc3ccc(C(=O)N[C@@H](CCC(=O)O)C(=O)O)cc3)c2c(=O)[nH]1	upper range
COc1ccc(C2=N[C@H](c3ccc(Cl)cc3)[C@H](c3ccc(Cl)cc3)N2C(=O)N2CCNC(=O)C2)c(OC(C)C)c1	upper range
CN(C)c1ccc(C2Nc3ccc4ccccc4c3C3=C2C(=O)CC(C)(C)C3)cc1Br (stereo unspecified)	middle range
CC(C)(C)NCC(O)c1ccc(O)c(CO)c1 (stereo unspecified)	upper range

Here's the next entry for you.
### Prompt Classify this molecule: `N#CC[C@H](C1CCCC1)n1cc(-c2ncnc3[nH]ccc23)cn1`
### Response upper range

###

measured-on: Cytochrome P450 1A2 (Homo sapiens) (UniProt P05177)
Sequence (P05177 whole entry, looked up): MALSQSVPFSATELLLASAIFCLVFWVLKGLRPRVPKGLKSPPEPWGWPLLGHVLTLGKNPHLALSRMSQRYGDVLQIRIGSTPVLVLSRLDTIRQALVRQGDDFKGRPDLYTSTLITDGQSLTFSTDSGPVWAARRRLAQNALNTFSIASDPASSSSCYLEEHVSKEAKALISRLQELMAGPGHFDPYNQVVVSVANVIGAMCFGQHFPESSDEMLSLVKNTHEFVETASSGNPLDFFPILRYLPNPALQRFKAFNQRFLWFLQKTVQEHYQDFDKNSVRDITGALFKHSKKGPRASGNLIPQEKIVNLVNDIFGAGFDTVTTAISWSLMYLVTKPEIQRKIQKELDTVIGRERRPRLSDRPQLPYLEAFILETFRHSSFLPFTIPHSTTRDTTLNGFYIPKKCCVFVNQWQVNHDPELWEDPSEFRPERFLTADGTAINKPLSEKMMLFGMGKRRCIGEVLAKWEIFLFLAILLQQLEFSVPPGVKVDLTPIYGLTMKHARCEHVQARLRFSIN
protocol-text: p450-cyp1a2 (AID 410)
conditions: recombinant CYP1A2, luciferin-ME demethylation, luminescence; series mostly up to 57 µM
Inconclusive results are not listed. Active and inactive are the calls of the source. The call rests on the fitted dose curve.
Just give me one of these, please: t for active, f for inactive

Worked examples, 8 molecules total:
CC(C)C[C@H](NC(=O)[C@@H](O)[C@H](N)Cc1ccccc1)C(=O)O f
N=c1nc(N2CCCCC2)cc(N)n1O f
Nc1ccc(S(=O)(=O)Nc2ccnn2-c2ccccc2)cc1 f
Cc1ccc2c(c1)C(=O)[C@@]1(O)CCN(c3ccccc3)C1=N2 t
CC(=O)Oc1ccccc1C(=O)O f
Clc1cccc(Cl)c1NC1=NCCN1 f
NC(=O)c1cnccn1 f
CCCC(CCC)C(=O)O f

### Prompt Give the logged outcome of this assay for the following molecule: `O=C1CCc2cc(OCCCCc3nnnn3C3CCCCC3)ccc2N1`
### Response f

### Prompt Give the logged outcome of this assay for the following molecule: `C1COC(NC(C2CC2)C2CC2)=N1`
### Response f

### Prompt Give the logged outcome of this assay for the following molecule: `Cc1ccc(N(CC2=NCCN2)c2cccc(O)c2)cc1`
### Response f

### Prompt Give the logged outcome of this assay for the following molecule: `CC(C)(Sc1ccc(CCN(CCCCC2CCCCC2)C(=O)NC2CCCCC2)cc1)C(=O)O`
### Response f
